Each record here notes measured pIC50.
target: Human 11b-HSD1 (Homo sapiens, UniProt P28845); construct: expressed in transfected cells; test: Inhibition of cortisone-to-cortisol conversion in CHO-K1 cells over-expressing human 11b-HSD1 (HTRF cortisol assay); type: cell-based; settings: CHO-K1 cells over-expressing human 11b-HSD1, 160 nM cortisone, 3 hours, 37° C.
Sequence (P28845 whole entry): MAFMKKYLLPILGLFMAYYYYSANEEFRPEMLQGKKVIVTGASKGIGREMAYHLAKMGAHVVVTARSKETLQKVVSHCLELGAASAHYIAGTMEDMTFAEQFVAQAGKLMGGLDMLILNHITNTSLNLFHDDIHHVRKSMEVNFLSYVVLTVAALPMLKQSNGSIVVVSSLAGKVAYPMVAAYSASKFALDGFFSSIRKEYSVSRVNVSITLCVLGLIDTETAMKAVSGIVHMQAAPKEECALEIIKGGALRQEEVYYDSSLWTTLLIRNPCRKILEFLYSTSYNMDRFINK
pIC50: −log10 of the molar value.

| smilesEntry | pIC50 |
| --- | --- |
| NC(=O)[C@]12CC3CC(C1)[C@@H](NC(=O)c1cc(-c4ccc(Cl)cc4)on1)C(C3)C2 | 6.30 to 7.00 |
| NC(=O)[C@]12CC3CC(C1)[C@@H](NC(=O)c1ccc(-c4cc(Cl)cc(Cl)c4)o1)C(C3)C2 | > 7.00 |
| Cc1cccc(-c2cc(C(=O)N[C@H]3C4CC5CC3C[C@](C(N)=O)(C5)C4)no2)c1 | < 6.30 |
| COc1ccccc1-c1cc(C(=O)N[C@H]2C3CC4CC2C[C@](C(N)=O)(C4)C3)no1 | < 6.30 |
| NC(=O)[C@]12CC3CC(C1)[C@@H](NC(=O)c1ccc(-c4ccccc4F)o1)C(C3)C2 | > 7.00 |
| NC(=O)[C@]12CC3CC(C1)[C@@H](NC(=O)c1ccc(-c4ccccc4)s1)C(C3)C2 | > 7.00 |
| CC(C)COc1cccc2ccc(C(=O)N[C@H]3C4CC5CC3C[C@](C(N)=O)(C5)C4)nc12 | > 7.00 |
| COc1ccc(-c2ccc(C(=O)N[C@H]3C4CC5CC3C[C@](C(N)=O)(C5)C4)o2)cc1 | > 7.00 |

###

biological target: 11b-HSD1 (Mus musculus, UniProt P50172); construct: the tissues in abdominal fat and the liver were obtained; from tissue; host or cells: abdominal fat and liver of C57Bl/6 mice; experiment: Ex vivo PD assay: 11b-HSD1 inhibition in abdominal fat and liver tissue after oral administration to mice; settings: mouse C57B1/6, oral, 10 mg/Kg, 2 hr, abdominal fat, vs vehicle group; read-out: 11b-HSD1 % inhibition in the fat
Sequence (P50172 whole entry): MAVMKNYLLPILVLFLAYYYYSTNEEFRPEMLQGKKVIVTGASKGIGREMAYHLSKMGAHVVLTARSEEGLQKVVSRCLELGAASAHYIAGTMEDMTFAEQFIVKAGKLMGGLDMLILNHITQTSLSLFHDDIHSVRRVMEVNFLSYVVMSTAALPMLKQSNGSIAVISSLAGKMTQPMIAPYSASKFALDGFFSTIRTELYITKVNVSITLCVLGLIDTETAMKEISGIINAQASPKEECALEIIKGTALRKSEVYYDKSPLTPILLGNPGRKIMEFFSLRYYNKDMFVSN

| smilesEntry | inhibition at 10 mg/kg |
| --- | --- |
| NC(=O)[C@]12CC3CC(C1)[C@@H](NC(=O)c1cccc4cccnc14)C(C3)C2 | 51% |
| NC(=O)[C@]12CC3CC(C1)[C@@H](NC(=O)c1ccc(-c4ccc(Cl)cc4)o1)C(C3)C2 | 84% |
| NC(=O)[C@]12CC3CC(C1)[C@@H](NC(=O)c1ccc(-c4ccccc4)o1)C(C3)C2 | 91% |
| NC(=O)[C@]12CC3CC(C1)[C@@H](NC(=O)c1ccc4ccccc4n1)C(C3)C2 | 58% |
| NC(=O)[C@]12CC3CC(C1)[C@@H](NC(=O)c1ccc4ccccc4[n+]1[O-])C(C3)C2 | 51% |

###

target: 11b-HSD1 (Mus musculus); construct: the tissues in abdominal fat and the liver were obtained; from tissue; host or cells: abdominal fat and liver of C57Bl/6 mice; test: Ex vivo PD assay: 11b-HSD1 inhibition in abdominal fat and liver tissue after oral administration to mice; settings: mouse C57B1/6, oral, 20 mg/Kg, 6 hr, abdominal fat, vs vehicle group; read-out: 11b-HSD1 % inhibition in the fat
metric: inhibition at 20 mg/kg

| molecule | metric | recordedMeasurement |
| --- | --- | --- |
| Cn1c(C(=O)N[C@H]2C3CC4CC2C[C@](C(N)=O)(C4)C3)ccc1-c1ccccc1Cl [Example 38] | inhibition at 20 mg/kg | 98% |
| NC(=O)[C@]12CC3CC(C1)[C@@H](NC(=O)c1ccc(-c4ccccc4F)o1)C(C3)C2 [Example 30] | inhibition at 20 mg/kg | 72% |
| NC(=O)[C@]12CC3CC(C1)[C@@H](NC(=O)c1ccc(-c4cccc(Cl)c4)o1)C(C3)C2 [Example 26] | inhibition at 20 mg/kg | 71% |
| NC(=O)[C@]12CC3CC(C1)[C@@H](NC(=O)c1ccc(-c4ccc(Cl)cc4)o1)C(C3)C2 [Example 2] | inhibition at 20 mg/kg | 85% |
| Cn1c(C(=O)N[C@H]2C3CC4CC2C[C@](C(N)=O)(C4)C3)ccc1-c1ccccc1F [Example 39] | inhibition at 20 mg/kg | 98% |
| NC(=O)[C@]12CC3CC(C1)[C@@H](NC(=O)c1ccc(-c4ccccc4)s1)C(C3)C2 [Example 40] | inhibition at 20 mg/kg | 63% |
| NC(=O)[C@]12CC3CC(C1)[C@@H](NC(=O)c1ccc4ccccc4n1)C(C3)C2 [Example 18] | inhibition at 20 mg/kg | 65% |
| NC(=O)[C@]12CC3CC(C1)[C@@H](NC(=O)c1ccc(-c4ccccc4)o1)C(C3)C2 [Example 1] | inhibition at 20 mg/kg | 83% |
| NC(=O)[C@]12CC3CC(C1)[C@@H](NC(=O)c1ccc4ccccc4[n+]1[O-])C(C3)C2 [Example 64] | inhibition at 20 mg/kg | 57% |
| NC(=O)[C@]12CC3CC(C1)[C@@H](NC(=O)c1ccc(-c4ccccc4Cl)s1)C(C3)C2 [Example 43] | inhibition at 20 mg/kg | 70% |
| Cn1c(C(=O)N[C@H]2C3CC4CC2C[C@](C(N)=O)(C4)C3)ccc1-c1ccccc1 [Example 34] | inhibition at 20 mg/kg | 96% |
| NC(=O)[C@]12CC3CC(C1)[C@@H](NC(=O)c1ccc(-c4ccccc4Cl)o1)C(C3)C2 [Example 27] | inhibition at 20 mg/kg | 80% |
